target: Cytochrome P450 2D6 (Homo sapiens) (UniProt P10635); assay: Cytochrome panel assay with activity outcomes; conditions: recombinant CYP, pro-luciferin dealkylation, luminescence, p450-cyp2d6; series mostly up to 57.1 µM
Sequence (P10635 whole entry, looked up): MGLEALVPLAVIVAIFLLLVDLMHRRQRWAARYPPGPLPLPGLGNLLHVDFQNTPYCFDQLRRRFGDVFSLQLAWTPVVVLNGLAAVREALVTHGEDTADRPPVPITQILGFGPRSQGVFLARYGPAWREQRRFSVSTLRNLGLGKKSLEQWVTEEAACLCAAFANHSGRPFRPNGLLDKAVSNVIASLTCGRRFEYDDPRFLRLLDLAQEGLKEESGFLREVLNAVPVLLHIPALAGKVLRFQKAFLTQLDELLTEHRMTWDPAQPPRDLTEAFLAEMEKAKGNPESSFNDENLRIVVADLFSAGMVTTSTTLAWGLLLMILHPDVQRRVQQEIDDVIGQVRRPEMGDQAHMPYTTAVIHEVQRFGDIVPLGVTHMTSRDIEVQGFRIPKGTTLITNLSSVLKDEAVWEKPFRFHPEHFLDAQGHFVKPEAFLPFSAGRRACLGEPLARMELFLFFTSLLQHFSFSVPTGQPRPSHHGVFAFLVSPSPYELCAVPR
Among all 16,000 compounds or so, about 2,600 (16%) were called active. Not shown: some 20% with an inconclusive outcome. Calls follow the shape of the dose curve; as a rule, active = well fitted curve in the direction sought with a large enough effect; inconclusive = small, poorly fitted or top-dose-only effect, or effect the other way; inactive = no such curve, though single readings can be large or run the other way. A selection follows.
Mark one answer only. Choices: active, inactive

INSERT INTO results (molecule, discrete_label) VALUES
  ('FC(F)(F)c1nc(-c2ccncc2)ncc1-c1nnnn1-c1ccccc1', 'inactive'),
  ('Cc1nn(C)c(C)c1CNC(=O)c1cnn2c1NC(c1ccccc1)CC2C(F)(F)F (stereo not given)', 'inactive'),
  ('CN1CCN(c2ncc3nc(-c4cc(F)cc(F)c4)c(=O)n(Cc4cccs4)c3n2)CC1', 'inactive');

Hi, do you know how C[N+]1(C)CCc2cc3c(cc2[C@@H]1[C@@H]1C(=O)Oc2c1ccc1c2OCO1)OCO3 came out in this test?
active

Hi, do you know how COc1cccc(-c2nnc3sc(-c4ccc(C)cc4)nn23)c1 came out in this test?
inactive

Hi, do you know how COC(=O)CN(c1ccc(OC)cc1)S(=O)(=O)c1c(C)noc1C came out in this test?
inactive

The reported measurements were obtained from PubChem BioAssay AID1851.
